# System: Aspergillus flavus
# procedure-text: Antifungal activity against Aspergillus flavus up to 200 ug/ml by agar well diffusion method
# Type: functional, organism-based
Active and inactive are the calls of the source. No cut-off for these calls is given here.
observation-type: Activity

> print(dat)
                              record.smiles                 tgt  observed.measurement
1  FC(F)(F)c1cccc(Nc2cc(-c3ccc(NC(=S)Nc4ccc(Cl)cc4)cc3)ncn2)c1  Aspergillus flavus              inactive
2  CC(C)c1ccc(NC(=O)Nc2ccc(-c3cc(Nc4cccc(C(F)(F)F)c4)ncn3)cc2)cc1  Aspergillus flavus              inactive
3  O=S(=O)(Nc1ccc(-c2cc(Nc3cccc(C(F)(F)F)c3)ncn2)cc1)c1ccc(OC(F)(F)F)cc1  Aspergillus flavus              inactive
4  Cc1cccc(S(=O)(=O)Nc2ccc(-c3cc(Nc4cccc(C(F)(F)F)c4)ncn3)cc2)c1  Aspergillus flavus              inactive

Origin of the recorded values: ChEMBL document CHEMBL2021896
